Origin of values: ChEMBL document CHEMBL1123856

organism: Rattus norvegicus; assay: Uterine activity was meseared in isolated rat uterus in solutions in the absence No Mg2+ 0.5 mM in vitro; assay type: functional
VALUE_TYPE: Uterine activity (units/mg)

1. N=C(N)NCCC[C@H](NC(=O)[C@@H]1CCCN1C(=O)[C@@H]1CSSC[C@H](N)C(=O)N[C@@H](Cc2ccc(O)cc2)C(=O)N[C@@H](Cc2ccccc2)C(=O)N[C@@H](CCC(N)=O)C(=O)N[C@@H](CC(N)=O)C(=O)N1)C(=O)NCC(N)=O [VASOPRESSIN]	12
2. NC(=O)CC[C@@H]1NC(=O)[C@H](Cc2ccccc2)NC(=O)[C@H](Cc2ccc(O)cc2)NC(=O)[C@@H](N)CSSC[C@@H](C(=O)N2C[C@H](O)C[C@H]2C(=O)N[C@@H](CCCN=C(N)N)C(=O)NCC(N)=O)NC(=O)[C@H](CC(N)=O)NC1=O (stereo in doubt; form 2)	225
